The measurements presented in this section are drawn from paper PMC7893776.

Each entry below carries its reported Cmax.
test: Mouse plasma pharmacokinetics, single PO or IV dose; assay type: in vivo, female C57BL/6 mice; details: mouse plasma, single PO 100 mg/kg
measured-metric: Cmax (µM)

[[record]]
molecule = "N#Cc1cc(NC(=O)[C@H]2c3ccccc3C(=O)N(CC(F)(F)F)[C@@H]2c2cccnc2)ccc1F [(+)-SJ733]"
readout_unit = "µM"
test_result = 11.7

[[record]]
molecule = "N#Cc1cc(NC(=O)C2c3ccccc3C(=O)N(CC(F)(F)F)C2c2cn[nH]c2)ccc1F (racemic) [(r)-SJ311]"
readout_unit = "µM"
test_result = 10.5


* * *

biological target: CYP3A4 (Homo sapiens, UniProt P08684); construct: purchased Cypex Ltd (Bactosomes); test: CYP450 inhibition, CYP3A4; type: in vitro ADME; conditions: human, pH 7.4; 10 µM, probe substrate Midazolam, replicate measurements
Sequence (P08684 whole entry): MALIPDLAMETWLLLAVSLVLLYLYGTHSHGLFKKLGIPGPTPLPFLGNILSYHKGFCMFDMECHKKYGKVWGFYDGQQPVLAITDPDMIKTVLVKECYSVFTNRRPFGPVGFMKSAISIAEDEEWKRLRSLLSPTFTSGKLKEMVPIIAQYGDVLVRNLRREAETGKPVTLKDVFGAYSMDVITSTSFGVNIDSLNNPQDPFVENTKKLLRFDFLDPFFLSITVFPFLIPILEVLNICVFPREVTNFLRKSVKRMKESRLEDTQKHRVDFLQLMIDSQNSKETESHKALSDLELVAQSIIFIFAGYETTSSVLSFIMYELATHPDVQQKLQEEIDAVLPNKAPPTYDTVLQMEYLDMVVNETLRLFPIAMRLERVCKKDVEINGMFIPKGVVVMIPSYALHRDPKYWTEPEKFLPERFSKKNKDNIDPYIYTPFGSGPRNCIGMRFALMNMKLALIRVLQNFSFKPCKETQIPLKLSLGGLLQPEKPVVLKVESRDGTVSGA
measured-metric: inhibition at 10 µM (%)

[[record]]
smiles = "N#Cc1cc(NC(=O)[C@H]2c3ccccc3C(=O)N(CC(F)(F)F)[C@@H]2c2cn[nH]c2)ccc1F"
measured_metric = "inhibition at 10 µM"
test_result = 53


* * *

test: Rat pharmacokinetics, single PO or IV dose; type: in vivo, male Sprague Dawley rats; conditions: in vivo, po, 100 mg/kg
measured-metric: Cmax (µM)

[[record]]
compound = "N#Cc1cc(NC(=O)[C@H]2c3ccccc3C(=O)N(CC(F)(F)F)[C@@H]2c2cn[nH]c2)ccc1F [(+)-SJ311]"
readout_unit = "µM"
test_result = 7.1

[[record]]
compound = "N#Cc1cc(NC(=O)[C@H]2c3ccccc3C(=O)N(CC(F)(F)F)[C@@H]2c2cccnc2)ccc1F [(+)-SJ733]"
readout_unit = "µM"
test_result = 16.6


* * *

assay: Microsomal stability, dog; assay type: in vitro ADME; details: dog microsomes, 0.8 µM
measured-metric: t1/2

[[record]]
molecule = "N#Cc1cc(NC(=O)[C@H]2c3ccccc3C(=O)N(CC(F)(F)F)[C@@H]2c2cccnc2)ccc1F [(+)-SJ733]"
test_result = "> 4 h"

[[record]]
molecule = "N#Cc1cc(NC(=O)[C@@H]2c3ccccc3C(=O)N(CC(F)(F)F)[C@H]2c2cn[nH]c2)ccc1F [(−)-SJ311]"
test_result = "> 4 h"

[[record]]
molecule = "N#Cc1cc(NC(=O)[C@H]2c3ccccc3C(=O)N(CC(F)(F)F)[C@@H]2c2cn[nH]c2)ccc1F [(+)-SJ311]"
test_result = "> 4 h"

[[record]]
molecule = "N#Cc1cc(NC(=O)[C@@H]2c3ccccc3C(=O)N(CC(F)(F)F)[C@H]2c2cccnc2)ccc1F [(-)-SJ733]"
test_result = "2.2 ± 0.4 h"


* * *

assay: Mouse plasma pharmacokinetics, single PO or IV dose; assay type: in vivo, female C57BL/6 mice; settings: mouse plasma, single PO 200 mg/kg
measured-metric: Cmax (µM)

[[record]]
compound = "N#Cc1cc(NC(=O)C2c3ccccc3C(=O)N(CC(F)(F)F)C2c2cccnc2)ccc1F (racemic) [(r)-SJ733]"
test_result = 12.7


* * *

assay: Microsomal stability, mouse; assay type: in vitro ADME; conditions: mouse microsomes, 0.8 µM
measured-metric: CLint

[[record]]
compound = "N#Cc1cc(NC(=O)[C@@H]2c3ccccc3C(=O)N(CC(F)(F)F)[C@H]2c2cccnc2)ccc1F [(-)-SJ733]"
test_result = "32.1 ± 2.1 µl/min/mg protein"

[[record]]
compound = "N#Cc1cc(NC(=O)[C@H]2c3ccccc3C(=O)N(CC(F)(F)F)[C@@H]2c2cn[nH]c2)ccc1F [(+)-SJ311]"
test_result = "< 7 µl/min/mg protein"

[[record]]
compound = "N#Cc1cc(NC(=O)[C@H]2c3ccccc3C(=O)N(CC(F)(F)F)[C@@H]2c2cccnc2)ccc1F [(+)-SJ733]"
test_result = "35.4 ± 2.1 µl/min/mg protein"

[[record]]
compound = "N#Cc1cc(NC(=O)[C@@H]2c3ccccc3C(=O)N(CC(F)(F)F)[C@H]2c2cn[nH]c2)ccc1F [(−)-SJ311]"
test_result = "< 7 µl/min/mg protein"

